Conditions: [M+Na]+; instrument: DT; stepped-field
METRIC: collision cross section (N2) (Å²)

structure_notation=CCCC/C=C\CCCCCCCC(=O)OC[C@H](COP(=O)([O-])OCC[N+](C)(C)C)OC(=O)CCCCCCCCC/C=C\C/C=C\CCCCC units_symbol=Å² result=281.98
structure_notation=CCCCCCCCCCC/C=C\CCCCC(=O)O[C@H](COC(=O)CCCCCCCCCCCCCCCCC)COP(=O)([O-])OCC[N+](C)(C)C units_symbol=Å² result=290.25
structure_notation=CCCC/C=C\CCCCCCCC(=O)OC[C@H](COP(=O)(O)OCCN)OC(=O)CCCCCCCCCCCCCCCCCCCC units_symbol=Å² result=279.26
